# Tested on: Rattus norvegicus
# PROCEDURE DETAILS: Compound tested for in vivo inhibitory dose against All-induced pressor response in normotensive, conscious rats
# Assay type: functional
# RUN PARAMETERS: read-out: ID50 (the source's name)
param class (str): category from ED50; see ranges lower band = under 0.3 mg/kg, central band = from 0.3 mg/kg up to 2 mg/kg, upper band = 2 mg/kg and over

{"COMPOUND": "CCCc1nc(CO)c(CO)n1Cc1ccc(-c2ccccc2C(=O)O)cc1", "CLASS ASSIGNMENT": "upper band"}
{"COMPOUND": "CCCCc1nc(Cl)c(C(=O)O)n1Cc1ccc(-c2ccccc2C(=O)O)cc1", "CLASS ASSIGNMENT": "lower band"}
{"COMPOUND": "CCCc1nc(C(=O)O)c(CO)n1Cc1ccc(-c2ccccc2C(=O)O)cc1", "CLASS ASSIGNMENT": "upper band"}
{"COMPOUND": "CCCc1cc(C(=O)O)c(CO)n1Cc1ccc(-c2ccccc2C(=O)O)cc1", "CLASS ASSIGNMENT": "upper band"}
{"COMPOUND": "CCCCc1nc(Cl)c(C(=O)O)n1Cc1ccc(-c2ccccc2-c2nn[nH]n2)cc1 [CARBOXYLIC ACID METABOLITE]", "CLASS ASSIGNMENT": "lower band"}
{"COMPOUND": "CCCCc1nc(CO)c(C(=O)O)n1Cc1ccc(-c2ccccc2C(=O)O)cc1", "CLASS ASSIGNMENT": "lower band"}
{"COMPOUND": "CCCc1nc(CO)c(C(=O)O)n1Cc1ccc(-c2ccccc2C(=O)O)cc1", "CLASS ASSIGNMENT": "lower band"}
{"COMPOUND": "CCCCc1nc(Cl)c(CO)n1Cc1ccc(-c2ccccc2C(=O)O)cc1", "CLASS ASSIGNMENT": "upper band"}
{"COMPOUND": "CCCc1nc(C(=O)O)c(C(=O)O)n1Cc1ccc(-c2ccccc2C(=O)O)cc1", "CLASS ASSIGNMENT": "central band"}
{"COMPOUND": "CCc1nc(CO)c(C(=O)O)n1Cc1ccc(-c2ccccc2C(=O)O)cc1", "CLASS ASSIGNMENT": "lower band"}
{"COMPOUND": "CCCc1cc(COC)c(C(=O)O)n1Cc1ccc(-c2ccccc2C(=O)O)cc1", "CLASS ASSIGNMENT": "upper band"}
{"COMPOUND": "CCCc1nc(CO)c(C(=O)OCC)n1Cc1ccc(-c2ccccc2C(=O)O)cc1", "CLASS ASSIGNMENT": "central band"}
